- tested target: PTPN11(SH2dom.N-term.) (Homo sapiens, UniProt Q06124)
- Construct: SH2dom.N-term. denotes SH2 domain closest to N-terminus of protein; made in house; host or cells: HEK293 (transient transfection, unpurified extract)
- Sequence (Q06124 6-102 limits assumed): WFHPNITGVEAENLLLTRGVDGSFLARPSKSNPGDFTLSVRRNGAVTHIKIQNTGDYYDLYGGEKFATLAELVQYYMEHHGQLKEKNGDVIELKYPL
- Assay type: binding
- study conditions: primary screen, 10 μM
Non-standard residues stand in square brackets, D forms with d. Residues, ends and D or L forms follow the SMILES beside them. *: point of attachment. pY = N[C@@H](Cc1ccc(OP(=O)(O)O)cc1)C(=O)O; Caffeoyl = O=C(/C=C/c1ccc(O)c(O)c1)*
Decision: percent of DMSO vehicle control compared against 90%; not below it gives rule met, below it gives rule not met.

compound	tested target	assigned category
CC(=O)N[C@@H](Cc1ccc(CP(=O)(O)O)cc1)C(=O)NC1(C(=O)N[C@@H](CC(N)=O)C(=O)NCCCc2c(O)ccc3ccccc23)CCCCC1	PTPN11(SH2dom.N-term.) (Homo sapiens, UniProt Q06124)	rule met
CC[C@H](C)[C@H](NC(=O)[C@H](CCC(=O)O)NC(=O)[C@H](CCC(=O)O)NC(=O)[C@H](Cc1ccc(OP(=O)(O)O)cc1)NC(C)=O)C(=O)N[C@@H](CCC(=O)O)C(N)=O [Ac-pYEEIE-NH2] (Ac-[pY]EEIE-NH2)	PTPN11(SH2dom.N-term.) (Homo sapiens, UniProt Q06124)	rule met
CC[C@H](C)[C@H](NC(=O)[C@H](CCC(=O)O)NC(=O)[C@H](CCC(=O)O)NC(=O)[C@H](Cc1ccc(OP(=O)(O)O)cc1)NC(=O)/C=C/c1ccc(O)c(O)c1)C(=O)N[C@@H](CCC(=O)O)C(=O)O [Caffeic acid-pYEEIE] (Caffeoyl-[pY]EEIE-OH)	PTPN11(SH2dom.N-term.) (Homo sapiens, UniProt Q06124)	rule met
CC(C)(C)[C@H](NC(=O)/C=C/c1ccc(OP(=O)(O)O)cc1)C(=O)N1CCC[C@H]1C(=O)N(c1ccccc1)c1ccc(I)cc1	PTPN11(SH2dom.N-term.) (Homo sapiens, UniProt Q06124)	rule not met

---

- tested target: YES (Homo sapiens)
- Construct: the DNA-tagged SH2 domain concentrations used in this study were <0.1 nM; made in house; host or cells: HEK293 (transient transfection; unpurified cell extract)
- test details: biochemical
- Assay type: binding
- study conditions: primary screen, 10 μM; read-out: percent of DMSO vehicle control
// remaining activity at 10 µM lookup, one value per entry

smiles notation	value units	remaining activity at 10 µM
CC(C)(C)[C@H](NC(=O)/C=C/c1ccc(OP(=O)(O)O)cc1)C(=O)N1CCC[C@H]1C(=O)N(c1ccccc1)c1ccc(I)cc1	%	37.7
O=C(COc1ccc2cc(C(=O)Nc3ccccc3)ccc2c1)NCc1ccc(OP(=O)(O)O)c(OP(=O)(O)O)c1	%	63.1
C/C(=C\C(=O)N[C@H](C(=O)N1CCC[C@H]1C(=O)N(c1ccccc1)c1ccc(I)cc1)C(C)(C)C)c1ccc(OP(=O)(O)O)cc1	%	29.5
O=C(CCl)Nc1cccc(CNC(=O)[C@H](Cc2ccc(OP(=O)(O)O)cc2)NC(=O)Cc2ccc(F)cc2)c1	%	46.5
